Tested on: SARS-CoV-2
Test: microbe, parasite or virus in culture
Conditions: Severe acute respiratory syndrome coronavirus 2, NRC-03-nhCoV, Vero C1008, 72 h
Description: Anti-SARS-CoV-2 activity against SARS-CoV-2 NRC-03-nhCoV infected in African green monkey Vero E6 cells assessed as inhibition of viral replication incubated for 72 hrs by crystal violet staining based analysis
experimental.endpoint: pIC50
Lab note — pIC50 values are minus log10 of concentrations in M.

## Task I am curious: what pIC50 value has been reported for CCC(CC)COC(=O)[C@H](C)N[P@](=O)(OC[C@H]1O[C@@](C#N)(c2ccc3c(N)ncnn23)[C@H](O)[C@@H]1O)Oc1ccccc1 [REMDESIVIR] ?
## Result 7.25

## Task I am curious: what pIC50 value has been reported for `N=C(N)Nc1ccc(C(=O)Nc2ncnc3[nH]cnc23)cc1` ?
## Result 7.64

## Task I am curious: what pIC50 value has been reported for `CC(C)c1cc(=O)oc2ccc(OC(=O)c3ccc(NC(=N)N)cc3)cc12` ?
## Result 8.24

## Task I am curious: what pIC50 value has been reported for O=C(Nc1ccn(C2OC(CO)C(O)C2O)c(=O)n1)c1ccc(Nc2ncccn2)cc1 (configuration not stated) ?
## Result 7.28

## Task I am curious: what pIC50 value has been reported for `N#C[C@@]1(c2ccc3c(NC(=O)c4ccc(NC(=N)N)cc4)ncnn23)O[C@H](CO)[C@@H](O)[C@H]1O` ?
## Result 8.41

## Task I am curious: what pIC50 value has been reported for `CC(C)(C)OC(=O)Nc1ccc(C(=O)Nc2ncnn3c([C@]4(C#N)O[C@H](CO)[C@@H](O)[C@H]4O)ccc23)cc1` ?
## Result 7.37

## Task I am curious: what pIC50 value has been reported for `N#C[C@@]1(c2ccc3c(NC(=O)c4ccc(Nc5ncccn5)cc4)ncnn23)O[C@H](CO)[C@@H](O)[C@H]1O` ?
## Result 7.71

====

What IC50 was measured for each of the following?
Molecular target: UniProt:P0DTD1
Experiment: Inhibition of SARS-CoV-2 recombinant RdRp preincubated with enzyme for 15 mins followed by single stranded polyribonucleotide template and NTPs addition and measured after 2 hrs by fluorescence spectrometric analysis
Your answer is read as nM, so omit the unit and give the number.

## Task I am curious: what IC50 value has been reported for `N#C[C@@]1(c2ccc3c(NC(=O)c4ccc(NC(=N)N)cc4)ncnn23)O[C@H](CO)[C@@H](O)[C@H]1O` ?
## Result 6.1

## Task I am curious: what IC50 value has been reported for `N#C[C@@]1(c2ccc3c(NC(=O)c4ccc(Nc5ncccn5)cc4)ncnn23)O[C@H](CO)[C@@H](O)[C@H]1O` ?
## Result 32.4

## Task I am curious: what IC50 value has been reported for `CC(C)c1cc(=O)oc2ccc(OC(=O)c3ccc(NC(=N)N)cc3)cc12` ?
## Result 4.42

====

System: SARS-CoV-2
Assay: microbe, parasite or virus in culture
Settings: Severe acute respiratory syndrome coronavirus 2, NRC-03-nhCoV, Calu-3, 72 h
Description: Anti-SARS-CoV-2 activity against SARS-CoV-2 NRC-03-nhCoV infected in human Calu-3 cells expressing TMPRSS2 assessed as inhibition of viral replication incubated for 72 hrs by crystal violet staining based analysis
experimental.endpoint: IC50 (nM)
Your answer is read as nM, so omit the unit and give the number.

## Task I am curious: what IC50 value has been reported for `CC(C)c1cc(=O)oc2ccc(OC(=O)c3ccc(NC(=N)N)cc3)cc12` ?
## Result 17.5

## Task I am curious: what IC50 value has been reported for `CN(C)C(=O)COC(=O)Cc1ccc(OC(=O)c2ccc(NC(=N)N)cc2)cc1` ?
## Result 8.21
